Test system: HL-60
Assay: Induction of apoptosis in human HL60 cells assessed as DNA population at sub G0/G1 phase at 10 uM after 6 hrs by flow cytometry
Type: functional
Quantity: Activity (%)
Numbers only, in %.

As a guide, the following entries are already answered.
Given item C=C1C(=O)O[C@@H]2[C@H]1CC[C@H](C)[C@]1(O)C=C(C(O)c3ccccc3)C(=O)[C@@]21C (some centres undefined) , the value recorded as its Activity is 13.89

Summary for this compound, `C=C1C(=O)O[C@@H]2[C@H]1CC[C@H](C)[C@]1(O)C=C(/C=C/CC)C(=O)[C@@]21C` : Activity is 1.6

Notebook: C=C1C(=O)O[C@@H]2[C@H]1CC[C@H](C)[C@]1(O)C=C(C(O)/C=C/c3ccccc3)C(=O)[C@@]21C (some centres undefined) , Activity read as 2.44

Field: next compound
response.value for `C=C1C(=O)O[C@@H]2[C@H]1CCC(C)=C1C=CC(=O)[C@]12C` (field: Activity) = 2.95

###

Test system: HL-60
Assay: Induction of apoptosis in human HL60 cells assessed as DNA population at sub G0/G1 phase at 10 uM after 6 hrs by flow cytometry
Assay type: functional
Consider the following molecules; for each one, report its Activity.
# answer = value followed by unit

Here are 6 molecules together with their reported answers.
# Activity (molecule: C[C@H]1CC[C@@H]2[C@@H](OC(=O)C2(Br)CBr)[C@]2(C)C(=O)C(Br)C(Br)[C@@]12O (some centres not stated) ) is 18.33%

// Activity value for `C[C@H]1CC[C@H]2[C@H](COCCO)C(=O)O[C@H]2[C@]2(C)C(=O)C=C[C@@]12O` : 2.05%

Lookup result for `C=C1C(=O)O[C@@H]2[C@H]1CC[C@H](C)[C@]1(O)C=C(CO)C(=O)[C@@]21C` ; measured Activity: 3.01%

molecule C=C1C(=O)O[C@@H]2[C@H]1CC[C@H](C)[C@]13OC(Cc4ccco4)O[C@H]1/C(=C/Cc1ccco1)C(=O)[C@@]23C (some centres not stated) , Activity observed: 42.38%

Sure, the documented Activity for C=C1C(=O)O[C@@H]2[C@H]1CC[C@H](C)[C@]1(O)C=C(C(O)c3ccc4c(c3)OCO4)C(=O)[C@@]21C (some centres not stated) is 2.13%

// sample C=C1C(=O)O[C@@H]2[C@H]1CC[C@H](C)[C@]1(O)C=C(C(O)c3ccc(Cl)cc3)C(=O)[C@@]21C (some centres not stated) , its Activity was 2.76%

Note: attention shifts to another entry.
Short answer for `C=C1C(=O)O[C@@H]2[C@H]1CC[C@H](C)[C@]13OCO[C@H]1CC(=O)[C@@]23C` : Activity was 2.86%

###

Tested on: HL-60
Experiment: Induction of apoptosis in human HL60 cells assessed as DNA population at sub G0/G1 phase at 10 uM after 6 hrs by flow cytometry
Format: functional
Hi all, reminder that labels come from Activity, split as lower segment (below 2%), middle segment (2% to below 3%), upper segment (3% or more)

Inquiry: Category of `C=C1C(=O)O[C@@H]2[C@H]1CC[C@H](C)[C@]1(O)C=C(/C=C/CCC)C(=O)[C@@]21C` , please.
Reply text: middle segment

---
Inquiry: Looking at `C=C1C(=O)O[C@@H]2[C@H]1CC[C@H](C)[C@]1(O)[C@H](OCCC)CC(=O)[C@@]21C` , which class would you pick?
Reply text: upper segment

Inquiry: Would you mind sorting CC1C(=O)O[C@@H]2[C@H]1CC[C@H](C)[C@]1(O)C=CC(O)[C@@]21C (stereo not given in full) into the appropriate category?
Reply text: lower segment

###

Test system: HL-60
Test: Induction of apoptosis in human HL60 cells assessed as DNA population at sub G0/G1 phase at 10 uM after 6 hrs by flow cytometry
Type: functional
Quantity: Activity (%)
One number for each entry, in %.

In the examples that follow, each entry is paired with its recorded Activity.
// Activity value for `C[C@H]1CC[C@H]2[C@H](COCCO)C(=O)O[C@H]2[C@]2(C)C(=O)C[C@@H](OCCO)[C@@]12O` : 2.19

Just so you know, measured Activity for C[C@H]1CC[C@@H]2[C@@H](OC(=O)C2(Br)CBr)[C@]2(C)C(=O)C(Br)=C[C@@]12O (some centres undefined) came out at 2.17

Data point: `C=C1C(=O)O[C@@H]2[C@H]1CC[C@H](C)[C@]1(O)[C@@H](O)/C(=C/c3ccc(Cl)cc3)C(=O)[C@@]21C` ; Activity = 19.38

New cases:
For this compound ( `C=C1C(=O)O[C@@H]2[C@H]1CC[C@H](C)[C@]1(O)[C@H](O)CC(=O)[C@@]21C` ), measured Activity is 1.17

###

System: HL-60
Experiment: Induction of apoptosis in human HL60 cells assessed as DNA population at sub G0/G1 phase at 10 uM after 6 hrs by flow cytometry
Type: functional
For each record, write down the corresponding Activity.
One number for each entry, in %.

The recorded Activity for entry `C=C1C(=O)O[C@@H]2[C@H]1CC[C@H](C)[C@]13OCO[C@H]1C(CO)(CO)C(=O)[C@@]23C` equals 2.61

List the reported Activity of each molecule below.
1. C=C1C(=O)O[C@@H]2[C@H]1CC[C@H](C)[C@]13OC(c4ccc(Cl)cc4)O[C@H]1/C(=C/c1ccc(Cl)cc1)C(=O)[C@@]23C (some centres undefined)
2. C=C1C(=O)O[C@@H]2[C@H]1CC[C@H](C)[C@]13OC(c4ccc5c(c4)OCO5)O[C@H]1/C(=C/c1ccc4c(c1)OCO4)C(=O)[C@@]23C (some centres undefined)
3. C=C1C(=O)O[C@@H]2[C@H]1CC[C@H](C)[C@]1(O)C=C(/C=C/CCCCC)C(=O)[C@@]21C

Reply text:
1: 94.1; 2: 58.75; 3: 6.78

###

Task for the reader: assign each of the following compounds its reported Activity.
Tested on: HL-60
Experiment: Induction of apoptosis in human HL60 cells assessed as DNA population at sub G0/G1 phase at 10 uM after 6 hrs by flow cytometry
Format: functional
Answers are plain numbers, in %.

Some solved entries appear below for comparison.
Lab book: Activity of C=C1C(=O)O[C@@H]2[C@H]1CC[C@H](C)[C@]13OC(c4ccccc4)O[C@H]1/C(=C/c1ccccc1)C(=O)[C@@]23C (stereo partly drawn) noted as 69.28

Reported Activity for `C=C1C(=O)O[C@@H]2[C@H]1CC[C@H](C)[C@]1(O)[C@H](OCCCC)CC(=O)[C@@]21C` was 1.9

More entries:
Entry under test: C=C1C(=O)O[C@@H]2[C@H]1CC[C@H](C)[C@]13OC(c4ccc(OC)cc4)O[C@H]1/C(=C/c1ccc(OC)cc1)C(=O)[C@@]23C (stereo partly drawn) . Its Activity was 2.17

###

Tested on: HL-60
Assay: Induction of apoptosis in human HL60 cells assessed as DNA population at sub G0/G1 phase at 10 uM after 6 hrs by flow cytometry
Format: functional
Give measured Activity for each item. Keep answers brief.
Numbers only, in %.

Some solved entries appear below for comparison.
HL-60 data for `C=C1C(=O)O[C@@H]2[C@H]1CC[C@H](C)[C@]1(O)[C@H](OC)CC(=O)[C@@]21C` ; its Activity: 1.95

Record `C=C1C(=O)O[C@@H]2[C@H]1CC[C@H](C)[C@]1(O)C=CC(=O)O[C@@]21C` / HL-60, Activity recorded as 2.98

The observed Activity for CC(=O)OC1C=C[C@@]2(O)[C@@H](C)CC[C@H]3C(C)C(=O)O[C@H]3[C@]12C (some centres not stated) when tested with HL-60 stands at 0.82

Value (Activity, HL-60) for record C=C1C(=O)O[C@@H]2[C@H]1CC[C@H](C)[C@]13OC(c4ccc(OC)c(OC)c4)O[C@H]1/C(=C/c1ccc(OC)c(OC)c1)C(=O)[C@@]23C (some centres not stated) = 81.38

Tested on HL-60, the item `C=C1C(=O)O[C@@H]2[C@H]1CC[C@H](C)[C@]1(O)[C@H](OCC)CC(=O)[C@@]21C` showed Activity equal to 4.51

// molecule C[C@H]1CC[C@@H]2[C@@H](OC(=O)C2(O)CBr)[C@]2(C)C(=O)C=C[C@@]12O (some centres not stated) , assay HL-60, Activity value: 3.25

# batch size: 4; output Activity per entry
1. C=C1C(=O)O[C@@H]2[C@H]1CC[C@H](C)[C@]13OC(C)O[C@H]1CC(=O)[C@@]23C (some centres not stated)
2. C=C1C(=O)O[C@@H]2[C@H]1CC[C@H](C)[C@]13OC(/C=C/c4ccccc4)O[C@H]1/C(=C/C=C/c1ccccc1)C(=O)[C@@]23C (some centres not stated)
3. C[C@H]1CC[C@@H]2[C@@H](OC(=O)C2(Br)CBr)[C@]2(C)C(=O)C=C[C@@]12O (some centres not stated)
4. C=C1C(=O)O[C@@H]2[C@H]1CC[C@H](C)[C@]1(O)[C@H](OCCO)CC(=O)[C@@]21C

Reply text:
1.9
82.97
1.93
1.81

# per-item lookup of Activity; items listed below
1. C=C1C(=O)O[C@@H]2[C@H]1CC[C@H](C)[C@]1(O)C=CC(=O)[C@@]21C
2. C=C1C(=O)O[C@@H]2[C@H]1CC[C@H](C)[C@]13OC(CC)O[C@H]1CC(=O)[C@@]23C (some centres not stated)

Reply text:
[13.69, 2.71]
